Tested on: 377384-186-R-J1-PDC complex spheroid viability
Test: Anticancer human tumor 377384-186-R-J1-PDC patient-derived pancreatic carcinoma cell line growth inhibition [CLK]
Details: second compound 1 µM; first compound 0.03 µM; hits give low values
property: viability, T/C (%)
The reply should be a number in %, with the unit left off.

Below are worked cases with known answers.
compound="NC(=O)C(=Cn1cnc(-c2cc(C(F)(F)F)cc(C(F)(F)F)c2)n1)c1cncnc1 + CNC(=O)c1ccc(Nc2nc(OC3CCCC3)c3c(-c4ccc5nc(C)oc5c4)c[nH]c3n2)c(OC)c1" test_value=20.9
compound="CC(C)CC(NC(=O)C(Cc1ccccc1)NC(=O)c1cnccn1)B(O)O (stereo unspecified) + CNC(=O)c1ccc(Nc2nc(OC3CCCC3)c3c(-c4ccc5nc(C)oc5c4)c[nH]c3n2)c(OC)c1" test_value=0.24
compound="C=CC(=O)Nc1cc(Nc2nccc(-c3cn(C)c4ccccc34)n2)c(OC)cc1N(C)CCN(C)C + CN1CCN(c2cc(C(=O)Nc3cc4cc(-c5cnn(C)c5)ccc4cn3)ccn2)CC1" test_value=1.55
compound="CC(C)CC(NC(=O)C(Cc1ccccc1)NC(=O)c1cnccn1)B(O)O (stereo unspecified) + CN1CCN(c2cc(C(=O)Nc3cc4cc(-c5cnn(C)c5)ccc4cn3)ccn2)CC1" test_value=0.22
compound="C=CC(=O)Nc1cc(Nc2nccc(-c3cn(C)c4ccccc34)n2)c(OC)cc1N(C)CCN(C)C + CNC(=O)c1ccc(Nc2nc(OC3CCCC3)c3c(-c4ccc5nc(C)oc5c4)c[nH]c3n2)c(OC)c1" test_value=19.2

Okay, next one:
What value of viability, T/C has been reported for the following compound? NC(=O)C(=Cn1cnc(-c2cc(C(F)(F)F)cc(C(F)(F)F)c2)n1)c1cncnc1 + CN1CCN(c2cc(C(=O)Nc3cc4cc(-c5cnn(C)c5)ccc4cn3)ccn2)CC1
0.58

====

Tested on: 377384-186-R-J1-PDC complex spheroid viability
Assay: Anticancer human tumor 377384-186-R-J1-PDC cell line growth inhibition [CLK];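 note: luminescence signal used as a stand-in for viable cells; spheroids exposed to agents for 7 days before reading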
Details: second compound 0.316 µM; first compound 10 µM; hits give low values
Reported viability, T/C maps to class as: bin A = under 9%, bin B = from 9% up to 20%, bin C = 20% and over

compound="O=C(c1cc(Cc2n[nH]c(=O)c3ccccc23)ccc1F)N1CCN(C(=O)C2CC2)CC1 + CNC(=O)c1ccc(Nc2nc(OC3CCCC3)c3c(-c4ccc5nc(C)oc5c4)c[nH]c3n2)c(OC)c1" discrete_label="bin B"

Tag the class for CC1(C)CCC(CN2CCN(c3ccc(C(=O)NS(=O)(=O)c4ccc(NCC5CCOCC5)c([N+](=O)[O-])c4)c(Oc4cnc5[nH]ccc5c4)c3)CC2)=C(c2ccc(Cl)cc2)C1 + CN1CCN(c2cc(C(=O)Nc3cc4cc(-c5cnn(C)c5)ccc4cn3)ccn2)CC1
bin A

Tag the class for CCCS(=O)(=O)Nc1ccc(F)c(C(=O)c2c[nH]c3ncc(-c4ccc(Cl)cc4)cc23)c1F + CN1CCN(c2cc(C(=O)Nc3cc4cc(-c5cnn(C)c5)ccc4cn3)ccn2)CC1
bin B

Tag the class for CC(Nc1ccc2c(c1)OCCn1cc(N3C(=O)OCC3C(F)F)nc1-2)C(N)=O (stereo not drawn) + CNC(=O)c1ccc(Nc2nc(OC3CCCC3)c3c(-c4ccc5nc(C)oc5c4)c[nH]c3n2)c(OC)c1
bin B

Tag the class for COc1cccc2c1C(=O)c1c(O)c3c(c(O)c1C2=O)CC(O)(C(=O)CO)CC3OC1CC(N)C(O)C(C)O1 (stereo not drawn) + CNC(=O)c1ccc(Nc2nc(OC3CCCC3)c3c(-c4ccc5nc(C)oc5c4)c[nH]c3n2)c(OC)c1
bin B

Tag the class for CC(Nc1ccc2c(c1)OCCn1cc(N3C(=O)OCC3C(F)F)nc1-2)C(N)=O (stereo not drawn) + CN1CCN(c2cc(C(=O)Nc3cc4cc(-c5cnn(C)c5)ccc4cn3)ccn2)CC1
bin B

Tag the class for CC(CO)NC(=O)c1cc(-c2ccc(Cl)cc2)nn(-c2cnn(C)c2)c1=O (stereo not drawn) + CN1CCN(c2cc(C(=O)Nc3cc4cc(-c5cnn(C)c5)ccc4cn3)ccn2)CC1
bin C

Tag the class for C=CC(=O)N1CCN(c2nc(=O)n(-c3c(C)ccnc3C(C)C)c3nc(-c4c(O)cccc4F)c(F)cc23)C(C)C1 (stereo not drawn) + CNC(=O)c1ccc(Nc2nc(OC3CCCC3)c3c(-c4ccc5nc(C)oc5c4)c[nH]c3n2)c(OC)c1
bin C

Tag the class for O=C(c1cc(Cc2n[nH]c(=O)c3ccccc23)ccc1F)N1CCN(C(=O)C2CC2)CC1 + CN1CCN(c2cc(C(=O)Nc3cc4cc(-c5cnn(C)c5)ccc4cn3)ccn2)CC1
bin C

Tag the class for CC(=O)O[C@H]1C(=O)[C@@]2(C)[C@H]([C@H](OC(=O)c3ccccc3)[C@]3(O)C[C@H](OC(=O)[C@H](O)[C@@H](NC(=O)c4ccccc4)c4ccccc4)C(C)=C1C3(C)C)[C@]1(OC(C)=O)CO[C@@H]1C[C@@H]2O + CN1CCN(c2cc(C(=O)Nc3cc4cc(-c5cnn(C)c5)ccc4cn3)ccn2)CC1
bin B

Tag the class for C=C(F)C(=O)N1CCN(c2nc(OCC3CCCN3C)nc3c2CCN(c2cccc4cccc(Cl)c24)C3)CC1CC#N (stereo not drawn) + CNC(=O)c1ccc(Nc2nc(OC3CCCC3)c3c(-c4ccc5nc(C)oc5c4)c[nH]c3n2)c(OC)c1
bin A

Tag the class for COc1cccc2c1C(=O)c1c(O)c3c(c(O)c1C2=O)CC(O)(C(=O)CO)CC3OC1CC(N)C(O)C(C)O1 (stereo not drawn) + CN1CCN(c2cc(C(=O)Nc3cc4cc(-c5cnn(C)c5)ccc4cn3)ccn2)CC1
bin B

Tag the class for C#Cc1c(F)ccc2cc(O)cc(-c3ncc4c(N5CC6CCC(C5)N6)nc(OCC56CCCN5CC(F)C6)nc4c3F)c12 (stereo not drawn) + CN1CCN(c2cc(C(=O)Nc3cc4cc(-c5cnn(C)c5)ccc4cn3)ccn2)CC1
bin A

Tag the class for C#Cc1c(F)ccc2cc(O)cc(-c3ncc4c(N5CC6CCC(C5)N6)nc(OCC56CCCN5CC(F)C6)nc4c3F)c12 (stereo not drawn) + CNC(=O)c1ccc(Nc2nc(OC3CCCC3)c3c(-c4ccc5nc(C)oc5c4)c[nH]c3n2)c(OC)c1
bin A

Tag the class for COC1C=CCC(C)C(C)S(=O)(=O)NC(=O)c2ccc3c(c2)N(CC2CCC21)CC1(CCCc2cc(Cl)ccc21)CO3 (stereo not drawn) + CNC(=O)c1ccc(Nc2nc(OC3CCCC3)c3c(-c4ccc5nc(C)oc5c4)c[nH]c3n2)c(OC)c1
bin B

Tag the class for CC(=O)O[C@H]1C(=O)[C@@]2(C)[C@H]([C@H](OC(=O)c3ccccc3)[C@]3(O)C[C@H](OC(=O)[C@H](O)[C@@H](NC(=O)c4ccccc4)c4ccccc4)C(C)=C1C3(C)C)[C@]1(OC(C)=O)CO[C@@H]1C[C@@H]2O + CNC(=O)c1ccc(Nc2nc(OC3CCCC3)c3c(-c4ccc5nc(C)oc5c4)c[nH]c3n2)c(OC)c1
bin C

Tag the class for C=CC(=O)N1CCN(c2nc(=O)n(-c3c(C)ccnc3C(C)C)c3nc(-c4c(O)cccc4F)c(F)cc23)C(C)C1 (stereo not drawn) + CN1CCN(c2cc(C(=O)Nc3cc4cc(-c5cnn(C)c5)ccc4cn3)ccn2)CC1
bin C

====

Measured viability, T/C, listed per entry for reference.
Tested on: 377384-186-R-J1-PDC complex spheroid viability
Experiment: Anticancer human tumor 377384-186-R-J1-PDC cell line growth inhibition [CLK];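 note: luminescence signal used as a stand-in for viable cells; spheroids exposed to agents for 7 days before reading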
Conditions: second compound 0.1 µM; first compound 0.1 µM; hits give low values
The reply should be a number in %, with the unit left off.

molecule="C=C(F)C(=O)N1CCN(c2nc(OCC3CCCN3C)nc3c2CCN(c2cccc4cccc(Cl)c24)C3)CC1CC#N (stereo not given) + CN1CCN(c2cc(C(=O)Nc3cc4cc(-c5cnn(C)c5)ccc4cn3)ccn2)CC1" test_value=101
molecule="Nc1ccccc1NC(=O)c1ccc(CNC(=O)OCc2cccnc2)cc1 + CN1CCN(c2cc(C(=O)Nc3cc4cc(-c5cnn(C)c5)ccc4cn3)ccn2)CC1" test_value=103
molecule="C#Cc1c(F)ccc2cc(O)cc(-c3ncc4c(N5CC6CCC(C5)N6)nc(OCC56CCCN5CC(F)C6)nc4c3F)c12 (stereo not given) + CN1CCN(c2cc(C(=O)Nc3cc4cc(-c5cnn(C)c5)ccc4cn3)ccn2)CC1" test_value=9.27
molecule="Cn1ncnc1[C@H]1c2n[nH]c(=O)c3cc(F)cc(c23)N[C@@H]1c1ccc(F)cc1 + CNC(=O)c1ccc(Nc2nc(OC3CCCC3)c3c(-c4ccc5nc(C)oc5c4)c[nH]c3n2)c(OC)c1" test_value=28.7

Okay, next one:
Please provide the recorded viability, T/C for COc1c(OCCCN2CCOCC2)ccc2c3n(c(=NC(=O)c4cnc(N)nc4)nc12)CCN3 + CN1CCN(c2cc(C(=O)Nc3cc4cc(-c5cnn(C)c5)ccc4cn3)ccn2)CC1 , tested on 377384-186-R-J1-PDC complex spheroid viability.
37.6
